Data credit: PubChem BioAssay (NCI)

# Test system: SN12C renal
# method description: NCI tumour cell line growth inhibition, 48 h
Measured TGI by item

Please look up its TGI: CN(Cc1cnc2nc(N)nc(N)c2n1)c1c(Cl)cc(C(=O)NC(CCC(=O)O)C(=O)O)cc1Cl (configuration not stated) > 100 µM

Please look up its TGI: COc1ccc(C(=O)Cn2c(C(=O)c3ccc(Cl)cc3)nc(-c3ccccc3)c2-c2ccccc2)cc1 > 100 µM

Please look up its TGI: Nc1ccccc1SC(/C=C/NNC1=NC(c2ccccc2)C(c2ccccc2)=NN1)c1ccccc1 (configuration not stated) 31.5 µM

Please look up its TGI: O=C(O)C12C=CC(C1)c1ccccc12 (configuration not stated) > 100 µM

Please look up its TGI: C/C(CC(O)(C(F)(F)F)C(F)(F)F)=N\O > 10 µM

Please look up its TGI: Cn1cc(-c2csc(-c3ccc(Cl)cc3)n2)c2cccnc21 32.5 µM

Please look up its TGI: CSCSCC(CO)NC(=O)/C=C\c1c(C)[nH]c(=O)[nH]c1=O (configuration not stated) 102 µM

Please look up its TGI: C=C1C(=O)OC2C[C@@]3(C)CCCC(=C)C3CC12 (some centres not stated) 16.7 µM

Please look up its TGI: CN1CCC(O)(OC(=O)C(c2ccccc2)C2(O)CCCC2)CC1 (configuration not stated) > 100 µM

Please look up its TGI: NCCOCCOCC(=O)O > 100 µM

Please look up its TGI: CC(C)(C)c1cc(C(C)(C)C)c(SC2OC(CO)C(O)C(O)C2O)c(O)c1O (configuration not stated) 25.8 µM

Please look up its TGI: Nc1ccnc2c1ncn2[C@H]1C[C@H](O)[C@@H](CO)O1 > 100 µM

Please look up its TGI: CC(C)(C)OC(=O)NCCCCCCCCCCCCn1c2c(c3ccccc3c1=O)C(=O)c1ccccc1-2 > 100 µM

Please look up its TGI: C/C(=C\c1ccccc1)C(=O)c1c(C)cc(C)cc1C > 100 µM

Please look up its TGI: O=Cn1c2ccccc2c2ccccc21 > 100 µM

Please look up its TGI: CNCC(SC)c1ccc(O)c(O)c1 (configuration not stated) 45.8 µM

---

# System: MALME-3M melanoma
# method description: NCI tumour cell line growth inhibition, 48 h
Measured TGI by item

line notation	result
COc1c(NC(C)=O)c2ccccc2c2ccccc12	> 100 µM
O=C(OCC1=CC(=O)c2ccccc2C1=O)c1ccccc1	3.12 µM
O=Cn1c2ccccc2c2ccccc21	> 100 µM
O=C(CC1(O)CCCCC1)OC1CCCC1	> 100 µM

Please look up its TGI: C=C(c1ccccc1)c1cc2c(=O)[nH]ccc2n1C > 100 µM

Please look up its TGI: Cc1cc(C)c(-c2c(O)c(Br)c(-c3c(C)cc(C)c(Br)c3C)c(O)c2Br)c(C)c1Br 5.8 µM

---

Measured TGI by item
# Tested on: SW-620 colon
# method description: NCI tumour cell line growth inhibition, 48 h

Consider the following illustrative entries.
compound	TGI
CC1(C)Cc2ccccc2C(C)(Cl)C(=O)N1 (stereo not given)	> 10 µM
COc1cc(/C=C2\N=C(c3ccccc3)N(c3cc4cc(Sc5ccccc5)ccc4[nH]3)C2=O)ccc1O	> 50 µM
C/C(=N/NC(N)=S)C(CN1CCOCC1)C(C1=C(O)c2ccccc2OC1)c1ccccc1 (stereo not given)	> 100 µM
C/C(N=NS(=O)(=O)c1c(C)cc(C)cc1C)=C1\C=CC=CN1O	> 100 µM
CN(C)C(=S)/N=c1\ssc(=Nc2ccccc2)n1-c1ccccc1	> 100 µM
O=C(O)c1c(CC(Cc2ccccc2)C(=O)O)ccc2c1CCC2 (stereo not given)	> 100 µM
C[C@H](NC(=O)C(C)(Cc1ccc(O)cn1)NC(=O)c1ccccc1)c1ccccc1 (stereo not given in full)	> 100 µM
O=C(Nc1ccccc1)N1C(c2ccccc2)=N[C@@H](c2ccccc2)[C@@H]1c1ccccc1	35.2 µM
C/C(=C\c1ccccc1)C(=O)c1c(C)cc(C)cc1C	> 100 µM
COc1cc(C=NCC(=O)CSC(c2ccccc2)c2ccccc2)ccc1O	31.4 µM

Fill in the recorded TGI for this compound, with SW-620 colon as test system: O=C(OCC1=CC(=O)c2ccccc2C1=O)c1ccccc1 17.5 µM

Fill in the recorded TGI for this compound, with SW-620 colon as test system: C#CCn1c(I)cc2c(c1=O)COC(=O)[C@]2(O)CC > 100 µM
